Reference for the values: patent US8754227B2

target: CYP2C19 (Homo sapiens (Human)); test: Inhibition of liver cytochrome P450 enzymes, pooled human liver microsomes; type: in vitro ADME
Sequence (P33261 whole entry): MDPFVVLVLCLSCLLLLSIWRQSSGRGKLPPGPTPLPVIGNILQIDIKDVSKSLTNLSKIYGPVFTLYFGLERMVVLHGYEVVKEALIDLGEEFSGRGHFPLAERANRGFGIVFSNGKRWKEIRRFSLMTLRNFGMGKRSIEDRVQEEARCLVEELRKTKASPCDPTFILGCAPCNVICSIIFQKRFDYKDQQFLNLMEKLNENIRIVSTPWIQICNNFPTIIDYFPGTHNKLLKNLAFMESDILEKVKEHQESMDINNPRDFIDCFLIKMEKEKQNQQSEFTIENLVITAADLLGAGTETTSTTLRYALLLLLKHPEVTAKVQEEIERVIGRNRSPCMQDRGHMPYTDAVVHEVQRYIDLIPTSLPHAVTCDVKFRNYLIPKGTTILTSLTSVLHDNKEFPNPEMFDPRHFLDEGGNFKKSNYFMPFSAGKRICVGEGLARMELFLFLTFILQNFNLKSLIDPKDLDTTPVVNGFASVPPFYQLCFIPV
reported_endpoint: IC50 (µM)

>  <compound>
OC(Cn1cncn1)(c1ccc(F)cc1F)C(F)(F)c1ccc(-c2ccc(OC(F)(F)F)cc2)cn1 (stereo not shown)

>  <target_of_assay>
CYP2C19 (Homo sapiens (Human))

>  <value>
11

$$$$

* * *

molecular target: CYP2C9 (Homo sapiens (Human), UniProt P11712); test: Inhibition of liver cytochrome P450 enzymes, pooled human liver microsomes; format: in vitro ADME
Sequence (P11712 whole entry): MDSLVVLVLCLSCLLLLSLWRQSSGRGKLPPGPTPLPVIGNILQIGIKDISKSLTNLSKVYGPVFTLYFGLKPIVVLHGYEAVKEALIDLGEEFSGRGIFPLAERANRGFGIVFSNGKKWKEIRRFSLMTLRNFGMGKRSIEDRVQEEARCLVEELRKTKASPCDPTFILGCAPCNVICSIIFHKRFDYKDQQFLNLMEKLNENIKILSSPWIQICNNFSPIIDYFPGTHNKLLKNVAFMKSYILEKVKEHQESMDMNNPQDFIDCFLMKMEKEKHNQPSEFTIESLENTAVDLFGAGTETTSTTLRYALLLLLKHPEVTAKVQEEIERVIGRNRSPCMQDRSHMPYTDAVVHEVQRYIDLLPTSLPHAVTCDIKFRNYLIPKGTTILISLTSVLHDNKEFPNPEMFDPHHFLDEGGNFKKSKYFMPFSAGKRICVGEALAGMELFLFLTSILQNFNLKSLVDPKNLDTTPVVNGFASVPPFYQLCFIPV
pIC50: −log10 of the molar value.
reported_endpoint: pIC50

>  <compound>
OC(Cn1cncn1)(c1ccc(F)cc1F)C(F)(F)c1ccc(-c2ccc(OC(F)(F)F)cc2)cn1 (stereo not shown) [Example 18]

>  <target_of_assay>
CYP2C9 (Homo sapiens (Human), UniProt P11712)

>  <value>
5.51

$$$$
